Reference source: patent US10813981B2

biological target: SapB (Homo sapiens, UniProt P07602); construct: made in house; host or cells: E. coli; assay: Fluorescence quenching titration of SapB with ligand (double logarithmic Stern-Volmer analysis); format: binding; conditions: 40 μM SapB, 50 mM phosphate buffer pH 5.5; average of three runs
readout: LogKA of binding by SapB

CC(C=CC1=C(C)CCCC1(C)C)=CC=CC(C)=Cc1cc(C=CC=C(C)C=CC2=C(C)CCCC2(C)C)cc[n+]1CCO [A2E, N-retinylidene-N-retinylethanolamine]
4.680
CC1=C(/C=C/C(C)=C/C=C/C(C)=C/C=C/C=C(C)/C=C/C=C(\C)C=O)C(C)(C)CCC1 [Apocarotenal, apo-carotenal]
4.618
COC1=C(OC)C(=O)C(C/C=C(\C)CC/C=C(\C)CC/C=C(\C)CC/C=C(\C)CC/C=C(\C)CC/C=C(\C)CC/C=C(\C)CC/C=C(\C)CCC=C(C)C)=C(C)C1=O [Coenzyme Q9]
6.196
COC1=C(OC)C(=O)C(C/C=C(\C)CC/C=C(\C)CC/C=C(\C)CCC=C(C)C)=C(C)C1=O [Coenzyme Q4]
5.103

====

Target: SapB (Homo sapiens)
Construct: made in house; host or cells: E. coli
Sequence (P07602 195-273 limits assumed): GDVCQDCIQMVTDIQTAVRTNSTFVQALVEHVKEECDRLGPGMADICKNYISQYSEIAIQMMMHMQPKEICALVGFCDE
Test: Temperature dependent fluorescence binding assay, SapB with ATO
Details: 25° C.; read-out: KA at 25° C., SapB-ATO
readout: pKd
Remember the convention: pKd equals -log10 of concentration in molar.

Entry `O=C1C(O)=C([C@H]2CC[C@H](c3ccc(Cl)cc3)CC2)C(=O)c2ccccc21` — recorded pKd = 6.95

====

target: SapB (Homo sapiens, UniProt P07602); construct: made in house; host or cells: E. coli; test: Fluorescence quenching titration of SapB with ligand (double logarithmic Stern-Volmer analysis); assay type: binding; details: 40 μM SapB, 50 mM phosphate buffer pH 5.5; average of three runs; read-out: LogKA of binding by SapB (converted)
readout: Kd (µM)

(A) O=C1C(O)=C([C@H]2CC[C@H](c3ccc(Cl)cc3)CC2)C(=O)c2ccccc21
(B) COC1=C(OC)C(=O)C(C/C=C(\C)CC/C=C(\C)CC/C=C(\C)CC/C=C(\C)CC/C=C(\C)CC/C=C(\C)CC/C=C(\C)CC/C=C(\C)CC/C=C(\C)CCC=C(C)C)=C(C)C1=O
(C) CCN(CC)CCCC(C)Nc1ccnc2cc(Cl)ccc12 (stereo not shown)
Asked: I'd appreciate it if you could rank the molecules mentioned above by Kd, largest value first. List the labels, following the order given in the request.
Given back: C, B, A
(C: 70.1 µM, B: 0.0631 µM, A: 0.0288 µM)

====

Target: SapB (Homo sapiens)
Construct: made in house; host or cells: E. coli
Sequence (P07602 195-273 limits assumed): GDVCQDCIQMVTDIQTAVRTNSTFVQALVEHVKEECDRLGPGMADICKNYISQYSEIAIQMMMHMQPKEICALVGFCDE
Test: Fluorescence quenching titration of SapB with ligand (double logarithmic Stern-Volmer analysis)
Assay type: binding
Details: read-out: KD, SapB binds A2E
readout: pKd
Remember the convention: pKd equals -log10 of concentration in molar.

Note to self: pKd of CC(C=CC1=C(C)CCCC1(C)C)=CC=CC(C)=Cc1cc(C=CC=C(C)C=CC2=C(C)CCCC2(C)C)cc[n+]1CCO [A2E, N-retinylidene-N-retinylethanolamine] with SapB (Homo sapiens) was 4.60

====

biological target: SapB mutant E69A (Homo sapiens, UniProt P07602, E263A); construct: is a product of the post-translational cleavage of prosaposin, along with SapA, SapC, and SapD; assay: Fluorescence binding assay (Stern-Volmer and temperature dependent), E69A with ATO; conditions: 25° C.; read-out: KA at 25° C., E69A-ATO
readout: pKd
Remember the convention: pKd equals -log10 of concentration in molar.

Entry `O=C1C(O)=C([C@H]2CC[C@H](c3ccc(Cl)cc3)CC2)C(=O)c2ccccc21` — recorded pKd = 4.23
